# tgt: α-glucosidase (Saccharomyces cerevisiae, UniProt P38158)
# Sequence (P38158 whole entry): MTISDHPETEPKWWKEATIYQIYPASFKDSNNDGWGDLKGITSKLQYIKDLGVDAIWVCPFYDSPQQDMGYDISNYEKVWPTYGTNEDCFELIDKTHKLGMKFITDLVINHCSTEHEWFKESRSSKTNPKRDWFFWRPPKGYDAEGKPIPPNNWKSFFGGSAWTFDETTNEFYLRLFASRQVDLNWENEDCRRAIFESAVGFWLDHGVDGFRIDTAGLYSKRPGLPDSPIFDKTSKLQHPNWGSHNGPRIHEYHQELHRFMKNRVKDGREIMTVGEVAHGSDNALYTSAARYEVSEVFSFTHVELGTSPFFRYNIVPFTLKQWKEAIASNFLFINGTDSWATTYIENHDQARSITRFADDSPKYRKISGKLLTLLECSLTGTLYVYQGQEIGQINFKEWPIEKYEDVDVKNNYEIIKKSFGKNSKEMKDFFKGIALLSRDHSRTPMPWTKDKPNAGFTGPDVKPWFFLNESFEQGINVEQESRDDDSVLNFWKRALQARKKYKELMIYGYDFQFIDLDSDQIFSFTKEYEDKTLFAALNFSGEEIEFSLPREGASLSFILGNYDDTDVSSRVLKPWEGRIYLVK
# procedure text: In vitro α-glucosidase inhibition assay
# Assay type: biochemical, S. cerevisiae
IC50 vs 20 µM: less than gives condition met; not less than gives condition not met.

                                  smiles_str        class_label
 0         Oc1ccc(C=Nc2ccc3[nH]c(S)nc3c2)cc1      condition met
 1        Sc1nc2cc(N=Cc3ccc(Cl)cc3)ccc2[nH]1  condition not met
 2             Sc1nc2cc(N=Cc3cccs3)ccc2[nH]1  condition not met
 3       COc1cccc(C=Nc2ccc3[nH]c(S)nc3c2)c1O      condition met
 4      Oc1ccc(C=Nc2ccc3[nH]c(S)nc3c2)c(O)c1      condition met
 5          COc1ccccc1C=Nc1ccc2[nH]c(S)nc2c1  condition not met
 6    COc1ccc(C=Nc2ccc3[nH]c(S)nc3c2)c(OC)c1      condition met
 7         Cc1ccc(C=Nc2ccc3[nH]c(S)nc3c2)cc1      condition met
 8  COc1cc(C=Nc2ccc3[nH]c(S)nc3c2)cc(OC)c1OC      condition met
 9  O=[N+]([O-])c1ccc(C=Nc2ccc3[nH]c(S)nc3c2)cc1      condition met
10      COc1ccc(C=Nc2ccc3[nH]c(S)nc3c2)cc1OC  condition not met
11   CCN(CC)c1ccc(C=Nc2ccc3[nH]c(S)nc3c2)cc1      condition met

Origin of the recorded values: paper PMC9730482
